measured.target: UniProt Q8VH18
Sequence (Q8VH18 as listed by the source): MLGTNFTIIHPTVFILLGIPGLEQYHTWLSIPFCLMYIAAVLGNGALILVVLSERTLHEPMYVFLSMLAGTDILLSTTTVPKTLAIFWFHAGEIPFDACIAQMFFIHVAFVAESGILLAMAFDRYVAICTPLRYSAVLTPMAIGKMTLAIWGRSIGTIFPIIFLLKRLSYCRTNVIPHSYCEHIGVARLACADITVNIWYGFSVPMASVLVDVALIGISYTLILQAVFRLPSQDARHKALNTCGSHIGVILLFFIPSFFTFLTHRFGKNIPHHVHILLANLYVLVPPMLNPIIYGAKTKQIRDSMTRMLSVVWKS
reported.conditions: stereoisomer not certain
Valid outcomes are listed here; reply with one: True for active, False for inactive

CCCC(C)=O :: False
CCCCCCCC(=O)[O-].[H+] :: True
CCCCCCCCO :: True
CCCCOC(=O)CCC :: False
CCCCCO :: False
O=C([O-])CCCCCCC(=O)[O-].[H+].[H+] :: False

# input Can you look up the reported call for CCCCCCCCCO for me?
# output True

# input Can you look up the reported call for CCCCCCCCC(=O)O for me?
# output True

# input Can you look up the reported call for O=C(O)CCCCCBr for me?
# output False
